log10(Ki) reference
# Target: UniProtKB Q9H244
# Sequence (Q9H244 whole entry): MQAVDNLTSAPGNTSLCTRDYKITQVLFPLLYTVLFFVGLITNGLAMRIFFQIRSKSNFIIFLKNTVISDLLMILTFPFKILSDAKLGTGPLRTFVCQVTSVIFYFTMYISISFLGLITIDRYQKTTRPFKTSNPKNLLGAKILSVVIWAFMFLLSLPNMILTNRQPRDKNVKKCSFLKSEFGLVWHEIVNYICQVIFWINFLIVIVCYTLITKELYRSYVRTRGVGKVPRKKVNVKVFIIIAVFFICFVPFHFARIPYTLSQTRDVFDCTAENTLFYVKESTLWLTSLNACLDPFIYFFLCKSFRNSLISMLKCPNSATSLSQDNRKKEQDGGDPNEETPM
# Test summary: Inhibition of human P2Y12 receptor expressed in CHO cells
Metric: log10(Ki) (log10 of the value in nM)

Compound: CCCCCOC(=O)N1CCN(C(=O)[C@H](CCC(=O)O)NC(=O)c2cc(N3CC[C@@H](C(=O)N(C)C)C3)cc(-c3ccccc3)n2)CC1
log10(Ki): 1.38
//
Compound: CCCCCOC(=O)N1CCN(C(=O)[C@H](CCC(=O)O)NC(=O)c2cc(N3CCN(C(=O)CN(C)C)CC3)cc(-c3ccccc3)n2)CC1
log10(Ki): 0.45
//
Compound: CCCCOC(=O)N1CCN(C(=O)[C@H](CCC(=O)O)NC(=O)c2cc(N3CCC(C(=O)N4CCCC4)CC3)cc(-c3ccccc3)n2)CC1
log10(Ki): 0.32
//
Compound: CCCCCOC(=O)N1CCN(C(=O)[C@H](CCC(=O)O)NC(=O)c2cc(N3CC(C(N)=O)C3)cc(-c3ccccc3)n2)CC1
log10(Ki): -0.19
//
Compound: CCCCCOC(=O)N1CCN(C(=O)[C@H](CCC(=O)O)NC(=O)c2cc(N3CCNCC3)cc(-c3ccccc3)n2)CC1
log10(Ki): 0.81
//
Compound: CCCCCOC(=O)N1CCN(C(=O)[C@H](CCC(=O)O)NC(=O)c2cc(N3CCC(CNC(C)=O)CC3)cc(-c3ccccc3)n2)CC1
log10(Ki): 1.40
//
Compound: CCCCCOC(=O)N1CCN(C(=O)C(CCC(=O)O)NC(=O)c2cc(N3CCC(O)C3)cc(-c3ccccc3)n2)CC1 (mixture of isomers)
log10(Ki): 1.11
//
Compound: CCCCCOC(=O)N1CCN(C(=O)[C@H](CCC(=O)O)NC(=O)c2cc(N3CCC(CCN4CCCC4)CC3)cc(-c3ccccc3)n2)CC1
log10(Ki): 0.90
//
Compound: CCCCOC(=O)N1CCN(C(=O)[C@H](CCC(=O)O)NC(=O)c2cc(N3CCC(CN4CCCC4)CC3)cc(-c3ccccc3)n2)CC1
log10(Ki): 0.18
//
Compound: CCCCCOC(=O)N1CCN(C(=O)[C@H](CCC(=O)O)NC(=O)c2cc(N3CCCC(CNC(C)=O)C3)cc(-c3ccccc3)n2)CC1 (some centres not stated)
log10(Ki): 1.00
//
Compound: CCCCCOC(=O)N1CCN(C(=O)[C@H](CCC(=O)O)NC(=O)c2cc(N3CCC(C(=O)NCC)CC3)cc(-c3ccccc3)n2)CC1
log10(Ki): -0.24
//
Compound: CCCCCOC(=O)N1CCN(C(=O)[C@H](CCC(=O)O)NC(=O)c2cc(N3CCCC(C(N)=O)C3)cc(-c3ccccc3)n2)CC1 (some centres not stated)
log10(Ki): 1.23
//
Compound: CCCCCOC(=O)N1CCN(C(=O)[C@H](CCC(=O)O)NC(=O)c2cc(N3CC[C@@H](C(=O)N4CCCC4)C3)cc(-c3ccccc3)n2)CC1
log10(Ki): 0.15
//
Compound: CCCCOC(=O)N1CCN(C(=O)[C@H](CCC(=O)O)NC(=O)c2cc(N3CCC(C(=O)N(CC)CC)CC3)cc(-c3ccccc3)n2)CC1
log10(Ki): 0.04
//
Compound: CCCCOC(=O)N1CCN(C(=O)[C@H](CCC(=O)O)NC(=O)c2cc(N3CCC(C(=O)N(C)C)CC3)cc(-c3ccccc3)n2)CC1
log10(Ki): 0.41
//
Compound: CCCCCOC(=O)N1CCN(C(=O)[C@H](CCC(=O)O)NC(=O)c2cc(N3CCCC(C(=O)N(CC)CC)C3)cc(-c3ccccc3)n2)CC1 (some centres not stated)
log10(Ki): 1.41
//
Compound: CCCCCOC(=O)N1CCN(C(=O)[C@H](CCC(=O)O)NC(=O)c2cc(N3CCC[C@H](O)C3)cc(-c3ccccc3)n2)CC1
log10(Ki): 1.26
//
Compound: CCCCCOC(=O)N1CCN(C(=O)[C@H](CCC(=O)O)NC(=O)c2cc(N3CCC(CNC)CC3)cc(-c3ccccc3)n2)CC1
log10(Ki): 0.18
//
Compound: CCCCCOC(=O)N1CCN(C(=O)[C@H](CCC(=O)O)NC(=O)c2cc(N3CCC[C@@H](O)C3)cc(-c3ccccc3)n2)CC1
log10(Ki): 1.20
//
Compound: CCCCCOC(=O)N1CCN(C(=O)[C@H](CCC(=O)O)NC(=O)c2cc(N3CCN(C(=O)N(CC)CC)CC3)cc(-c3ccccc3)n2)CC1
log10(Ki): 1.08
//
Compound: CCCCCOC(=O)N1CCN(C(=O)[C@H](CCC(=O)O)NC(=O)c2cc(N3CCN(CC(=O)N(CC)CC)CC3)cc(-c3ccccc3)n2)CC1
log10(Ki): 0.77
//
Compound: CCCCCOC(=O)N1CCN(C(=O)[C@H](CCC(=O)O)NC(=O)c2cc(N3CCCC(COC)C3)cc(-c3ccccc3)n2)CC1 (some centres not stated)
log10(Ki): 1.34
//
Compound: CCCCCOC(=O)N1CCN(C(=O)[C@H](CCC(=O)O)NC(=O)c2cc(N3CCN(C(N)=O)CC3)cc(-c3ccccc3)n2)CC1
log10(Ki): 0.80
//
Compound: CCCCCOC(=O)N1CCN(C(=O)[C@H](CCC(=O)O)NC(=O)c2cc(N3CCN(CC(=O)N4CCCC4)CC3)cc(-c3ccccc3)n2)CC1
log10(Ki): 0.72
//
Compound: CCCCCOC(=O)N1CCN(C(=O)[C@H](CCC(=O)O)NC(=O)c2cc(N3CCN(C(=O)N(C)C)CC3)cc(-c3ccccc3)n2)CC1
log10(Ki): 0.77
//
Compound: CCCCCOC(=O)N1CCN(C(=O)[C@H](CCC(=O)O)NC(=O)c2cc(N3CCC(CCN)CC3)cc(-c3ccccc3)n2)CC1
log10(Ki): 0.45
//
Compound: CCCCCOC(=O)N1CCN(C(=O)[C@H](CCC(=O)O)NC(=O)c2cc(N3CCCC(CN4CCCC4=O)C3)cc(-c3ccccc3)n2)CC1 (some centres not stated)
log10(Ki): 1.00
